Data credit: patent US20190071416A1

target.entity: UniProtKB Q9H7B4
method.summary: SMYD3 biochemical assay (MTase-Glo, MAP3K2 peptide substrate)
test.settings: Table 3; MTase assay, MAP3K2 peptide substrate; read-out: IC50
observed.property: IC50 (µM)

{"molecule": "CCCOC(=O)N1CCN(C(=O)c2ccc3c(Cl)c(C#N)c(C)nc3c2)CC1", "measured.value": 2.8}
{"molecule": "CCCOC(=O)N1CCN(C(=O)c2ccc3c(Cl)cc(-c4ccc(F)c(C(N)=O)c4)nc3c2)CC1", "measured.value": 0.62}

I: CCCOC(=O)N1CCN(C(=O)c2ccc3c(Cl)c4c(nc3c2)CC(CCN(C)C)CC4)[C@@H](C)C1 (stereo partly shown)
II: CCCOC(=O)N1CCN(C(=O)c2ccc3c(Cl)cc(-c4ccc5[nH]cnc5c4)nc3c2)CC1
Incoming: Problem: Given the entries I and II , determine which has the lower reported IC50. Your answer should be the label attached to the chosen record.
Outgoing: II
(II: 0.034 µM, I: 0.11 µM)

====

target.entity: SMYD3 (Homo sapiens, UniProt Q9H7B4)
Sequence (Q9H7B4 1-428): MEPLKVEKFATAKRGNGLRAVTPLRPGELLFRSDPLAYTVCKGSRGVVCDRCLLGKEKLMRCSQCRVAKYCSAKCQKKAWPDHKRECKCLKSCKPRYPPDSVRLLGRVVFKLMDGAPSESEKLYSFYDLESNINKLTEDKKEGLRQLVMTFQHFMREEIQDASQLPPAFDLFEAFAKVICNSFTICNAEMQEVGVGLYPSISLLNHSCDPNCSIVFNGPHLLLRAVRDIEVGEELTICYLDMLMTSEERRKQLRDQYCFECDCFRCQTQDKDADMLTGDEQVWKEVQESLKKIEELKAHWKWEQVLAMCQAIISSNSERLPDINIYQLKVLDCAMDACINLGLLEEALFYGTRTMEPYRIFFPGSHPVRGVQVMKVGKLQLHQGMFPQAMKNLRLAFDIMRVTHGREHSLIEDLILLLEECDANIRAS
method.summary: SMYD3 biochemical assay (MTase-Glo, MAP3K2 peptide substrate)
test.settings: Table 3; MTase assay, MAP3K2 peptide substrate; read-out: IC50
observed.property: IC50 (µM)

{"compound": "CCCOC(=O)N1CCN(C(=O)c2ccc3c(Cl)c4c(nc3c2)CC(c2ncccc2C)CC4)CC1 (stereo not shown)", "target.entity": "SMYD3 (Homo sapiens, UniProt Q9H7B4)", "IC50 / µM": 1.2}

A: CCCOC(=O)N1CCN(C(=O)c2ccc3c(Cl)c4c(nc3c2)CC(c2ccc(F)cn2)CC4)[C@@H](C)C1 (stereo partly shown)
B: CCCOC(=O)N1CCN(C(=O)c2ccc3c(Cl)cc(-c4cccc(CO)c4)nc3c2)C[C@H]1C
C: CCCOC(=O)N1CCN(C(=O)c2ccc3c(Cl)cc(-c4ccnc(C)c4)nc3c2)CC1
Incoming: Endpoint returns the given compounds ordered by ascending IC50. Sort and list the labels as requested.
Outgoing: B, A, C

====

target.entity: SMYD3 (Homo sapiens, UniProt Q9H7B4)
method.summary: SMYD3 biochemical assay (MTase-Glo, MAP3K2 peptide substrate)
test.settings: Table 3; MTase assay, MAP3K2 peptide substrate; read-out: IC50
pIC50: −log10 of the molar value.
observed.property: pIC50

{"compound": "CCCOC(=O)N1CCN(C(=O)c2ccc3c(Cl)cc(-c4ccccc4)nc3c2)CC1 [B002]", "target.entity": "SMYD3 (Homo sapiens, UniProt Q9H7B4)", "measured.value": 6.39}

A: Cc1cc(C(=O)N2CCN(C(=O)c3ccc4c(Cl)c5c(nc4c3)CCCC5)CC2)no1 [A012]
B: CCCOC(=O)N1CCN(C(=O)c2ccc3c(Cl)cc(-c4ccc(C(=O)NC)c(F)c4)nc3c2)CC1 [B204]
Incoming: Problem: Given the entries A and B , determine which has the lower reported pIC50. Your answer should be the label attached to the chosen record.
Outgoing: A
(A: 5.78, B: 6.00)

I: CCCOC(=O)N1CCN(C(=O)c2ccc3c(Cl)cc(-c4cnn(C5COC5)c4)nc3c2)C[C@H]1C [B272]
II: CCCOC(=O)N1CCN(C(=O)c2ccc3c(Cl)c4c(nc3c2)CCNC4)CC1 [C008]
Incoming: Problem: Given the entries I and II , determine which has the lower reported pIC50. Your answer should be the label attached to the chosen record.
Outgoing: II

1: CCCOC(=O)N1CCN(C(=O)c2ccc3c(Cl)c4c(nc3c2)CCCC4)CC1(C)C [A035]
2: CCCOC(=O)N1CCN(C(=O)c2ccc3c(Cl)cc(-c4ccc(C(=O)NCC)cc4)nc3c2)CC1 [B206]
Incoming: Problem: Given the entries 1 and 2 , determine which has the lower reported pIC50. Your answer should be the label attached to the chosen record.
Outgoing: 1
(1: 5.09, 2: 6.22)

a: CCCOC(=O)N1CCN(C(=O)c2ccc3c(Cl)cc(-c4ccc(C(=O)NC)cc4)nc3c2)C[C@@H]1C [B189]
b: CCCOC(=O)N1CCN(C(=O)c2ccc3c(Cl)c4c(nc3c2)CC(c2ccnc(C)c2)CC4)C[C@H]1C (some centres unmarked) [A122]
c: CC(C)(O)c1ccc(-c2cc(Cl)c3ccc(C(=O)N4CCN(C(=O)OCCF)CC4)cc3n2)cc1 [B266]
Incoming: Given 3 compounds, produce a descending ranking by pIC50. Sort and list the labels as requested.
Outgoing: a, b, c
(a: 7.16, b: 6.92, c: 5.48)

A: CCCOC(=O)N1CCN(C(=O)c2ccc3c(Cl)cc(-c4ccc5ncn(C)c5c4)nc3c2)CC1 [B207]
B: O=C(c1ccc2c(Cl)cc(-c3ccccc3)nc2c1)N1CCN(C(=O)c2cnn(C3CC3)c2)CC1 [D011]
C: CC(C)Cc1cc(C(=O)N2CCN(C(=O)c3ccc4c(Cl)c5c(nc4c3)CCCC5)CC2)no1 [A007]
D: CCCOC(=O)N1CCN(C(=O)c2ccc3c(Cl)cc(-c4ccc(OC)c(CN)c4)nc3c2)CC1 [B097]
E: C[C@@H]1CN(C(=O)c2ccc3c(Cl)cc(-c4ccn(C)c4)nc3c2)CCN1C(=O)C[C@H]1CCC(=O)N1 [D001]
Incoming: Endpoint returns the given compounds ordered by ascending pIC50. Sort and list the labels as requested.
Outgoing: E, C, B, D, A
(E: 4.87, C: 5.16, B: 6.70, D: 6.96, A: 7.22)

1: CCCOC(=O)N1CCN(C(=O)c2ccc3c(Cl)cc(-c4ccc(N)cc4)nc3c2)C[C@H]1C [B074]
2: CCCOC(=O)N1CCN(C(=O)c2ccc3c(Cl)cc(-c4ccc(N5CCCC5)cc4)nc3c2)C[C@H]1C [B075]
3: CCCOC(=O)N1CCN(C(=O)c2ccc3c(Cl)cc(-c4ccc(N5CCCC5)c(F)c4)nc3c2)CC1 [B238]
Incoming: Endpoint returns the given compounds ordered by ascending pIC50. Sort and list the labels as requested.
Outgoing: 3, 2, 1

P: CCCOC(=O)N1CCN(C(=O)c2ccc3c(Cl)c4c(nc3c2)CC(c2nccs2)CC4)C[C@H]1C (some centres unmarked) [A129]
Q: CCCOC(=O)N1CCN(C(=O)c2ccc3c(Cl)cc(-c4cccc(CN)c4)nc3c2)C[C@@H]1C [B145]
R: CCCOC(=O)N1CCN(C(=O)c2ccc3c(Cl)cc(-c4ccc(CF)cc4)nc3c2)[C@@H](C)C1 [B161]
S: CCCOC(=O)N1CCN(C(=O)c2ccc3c(Cl)cc(-c4cn[nH]c4C(F)(F)F)nc3c2)CC1 [B250]
T: CCCOC(=O)N1CCN(C(=O)c2ccc3c(Cl)c(C)c(-c4ccc(OC)cc4)nc3c2)C[C@H]1C [B036]
Incoming: Given 5 compounds, produce a descending ranking by pIC50. Sort and list the labels as requested.
Outgoing: Q, P, T, R, S
(Q: 7.33, P: 7.03, T: 6.82, R: 6.48, S: 5.31)

P: CCCOC(=O)N1CCN(C(=O)c2ccc3c(Cl)cc(-c4cnc5c(cnn5C)c4)nc3c2)CC1 [B174]
Q: CCCOC(=O)N1CCN(C(=O)c2ccc3c(Cl)cc(-c4ccc(CN(C)C)cc4)nc3c2)CC1 [B110]
R: CCCOC(=O)N1CCN(C(=O)c2ccc3c(Cl)cc(-c4cccc(C(C)O)c4)nc3c2)CC1 (centres unmarked) [B158]
Incoming: Given 3 compounds, produce a descending ranking by pIC50. Sort and list the labels as requested.
Outgoing: R, Q, P
(R: 7.08, Q: 6.80, P: 6.33)

====

target.entity: SMYD3 (Homo sapiens)
method.summary: SMYD3 biochemical assay (MTase-Glo, MAP3K2 peptide substrate)
test.settings: Table 3; MTase assay, MAP3K2 peptide substrate; read-out: IC50
observed.property: IC50 (µM)

Answered cases to consult:
{"compound": "CCCOC(=O)N1CCN(C(=O)c2ccc3c(Cl)c4c(nc3c2)CCC(CC(=O)OC)C4)[C@H](C)C1 (stereo partly shown)", "unit.descriptor": "µM", "measured.value": 0.16}
{"compound": "CCCOC(=O)N1CCN(C(=O)c2ccc3c(Cl)cc(-c4cnn(C)c4)nc3c2)[C@@H](C)C1", "unit.descriptor": "µM", "measured.value": 0.23}
{"compound": "CCCOC(=O)N1CCN(C(=O)c2ccc3c(Cl)cc(-c4ccc5c(cnn5C)c4)nc3c2)C[C@@H]1C", "unit.descriptor": "µM", "measured.value": 0.018}
{"compound": "CCCOC(=O)N1CCN(C(=O)c2ccc3c(Cl)c4c(nc3c2)CC(c2ccc(F)cn2)CC4)C[C@@H]1C (stereo partly shown)", "unit.descriptor": "µM", "measured.value": 0.17}
{"compound": "C#Cc1ccc(-c2cc(Cl)c3ccc(C(=O)N4CCN(C(=O)OCCC)[C@H](C)C4)cc3n2)cc1", "unit.descriptor": "µM", "measured.value": 1}

a: CCCOC(=O)N1CCN(C(=O)c2ccc3c(Cl)c4c(nc3c2)CCC(CC(=O)OC)C4)C[C@@H]1C (stereo partly shown)
b: CC(C)COC(=O)N1CCN(C(=O)c2ccc3c(Cl)c4c(nc3c2)CCCC4)CC1
Incoming: Problem: Given the entries a and b , determine which has the lower reported IC50. Your answer should be the label attached to the chosen record.
Outgoing: a

1: CCCOC(=O)N1CCN(C(=O)c2ccc3c(Cl)c(C)c(-c4cccc(N)c4)nc3c2)C[C@H]1C
2: CCCOC(=O)N1CCN(C(=O)c2ccc3c(Cl)c4c(nc3c2)CC(c2ncccc2C)CC4)[C@@H](C)C1 (stereo partly shown)
3: CCCOC(=O)N1CCN(C(=O)c2ccc3c(Cl)cc(-c4cnn(C(F)F)c4)nc3c2)CC1
4: CCCOC(=O)N1CCN(C(=O)c2ccc3c(Cl)cc(-c4ccc(C(C)N5CCCC5)cc4)nc3c2)C[C@H]1C (stereo partly shown)
5: CCCOC(=O)N1CCN(C(=O)c2ccc3c(Cl)cc(-c4cccc(O)c4)nc3c2)CC1
Incoming: Given 5 compounds, produce a descending ranking by IC50. Sort and list the labels as requested.
Outgoing: 2, 3, 4, 1, 5
(2: 1.7 µM, 3: 0.7 µM, 4: 0.28 µM, 1: 0.12 µM, 5: 0.016 µM)
